# Test system: Plasmodium berghei
# protocol-details: Screen against P. berghei liver stage (PbLuc), transformed with Luciferase, at 10uM
# Format: functional, HepG2
# assay-setup: tested at 10 uM
In all, about 69,000 compounds went through this assay and about 8,600 (12%) showed an effect of 50% or more. What follows is part of a selection rich in strong results, with near analogues and random picks from the rest.
Answer each item with its documented INHIBITION.
One number for each entry, in %.

Below, 3 molecules whose answers are already recorded.
COc1ncccc1CN1CCC2(CC1)CC(OCC1CC1)CO2 (centres undefined)
56.4
CCNc1c(NC(=O)C2CC2)c(=O)oc2ccccc12
-21.9
Cc1cc(-c2cc(N)c(=O)n(CC(=O)N3CCCC(C)C3)n2)c(C)o1 (centres undefined)
22.35

Respectfully, I request INHIBITION for each entry included below.
1. CN(c1ncnc2ccccc12)C1CCCN(c2cccnn2)C1 (centres undefined)
2. COc1ncccc1CN1CC[C@]2(C[C@@H](OCc3ccccn3)CO2)C1
3. Cc1c(C(=O)N2CCC2)nnn1-c1ccc2ncccc2c1
4. Cn1ccnc1CN1CC[C@@H](NS(C)(=O)=O)[C@@H]1Cc1ccccc1

Response:
52
-3.52
-24.8
45.1

State recorded INHIBITION for all listed molecules.
1. CN(c1ncnc2sccc12)C1CCCN(c2cccnn2)C1 (centres undefined)
2. COc1ncccc1CN1CCC2(CC1)COCCN2C
3. Cc1ccc(C(=O)N2CCc3ccc(=O)n(CCN(C)C)c3CC2)o1
4. O=C(c1cscn1)N1C[C@H]2CCCC(OCc3cccnc3)[C@H]2C1 (some centres undefined)
5. Cc1ccc(C(=O)NC(CN2CCCC2=O)c2ccccc2)cn1 (centres undefined)
6. CCN(C)c1ncnc2c1CCN(C(=O)N1CCCC1)CC2
7. Cc1ccc(Cc2cnc(NC(=O)C3CNC(=O)N3)s2)cc1F (centres undefined)

Response:
[7.18, 70.4, -17.2, 4.2, 15.3, -21.3, 55.5]

Batch of 8 molecules: report INHIBITION for each.
1. c1ncn(Cc2cnc3n2CCN(Cc2ccsc2)CC3)n1
2. Cc1cc(C(=O)NCCN2CCCCC2)nn1C(C)(C)C
3. CCN1CCCC12CCN(Cc1cccnc1OC)CC2
4. COCCN1CCCC12CCN(Cc1cccnc1OC)CC2
5. O=C1NCC(C(=O)Nc2ncc(Cc3ccc(F)cc3)s2)N1 (centres undefined)
6. CCOC1COC2(CCN(Cc3cccnc3OC)CC2)C1 (centres undefined)
7. Cc1cc2n(n1)CC(CNCc1cc(C)on1)CN2 (centres undefined)
8. c1csc(-c2noc(CCCN3CCCC3Cn3cccn3)n2)c1 (centres undefined)

Response:
1. 37
2. -22.3
3. 42.3
4. 26
5. 26.5
6. 18.6
7. 26.8
8. 39.8

Field: INHIBITION. Fill in for each record below.
1. COc1ccc(F)cc1C(=O)N(C)[C@@H]1CC[C@@H](O)[C@@H]1O
2. CN(Cc1cn2ccccc2n1)C1CCCN(c2cccnn2)C1 (centres undefined)

Response:
1: -42; 2: 16.7

----------
# Tested on: Plasmodium berghei
# protocol-details: Screen against P. berghei liver stage (PbLuc), transformed with Luciferase, at 10uM
# Format: functional, HepG2
# assay-setup: tested at 10 uM
Screen size: about 69,000 compounds; about 8,600 (12%) showed an effect of 50% or more. The full list was thinned out, with strong results kept by preference.
Could you please mark condition met for values of INHIBITION below 30% and condition not met for values at or above it?

Cc1nn(C)c(C)c1NC(=O)CN1CCCC1c1c(C)nn(C)c1C (stereo unspecified)
condition met
COCCC(=O)N1CCCCC1c1ccc(F)cc1 (stereo unspecified)
condition not met
CC(=O)NCCNC(=O)CN1CCCC1c1c(C)nn(C)c1C (stereo unspecified)
condition not met
Cc1nn(C)c(Cl)c1C1CCCN1CC(=O)N1CCOCC1 (stereo unspecified)
condition not met
O=C1CCCN1CCCC(=O)N1CCCCC1c1ccc(F)cc1 (stereo unspecified)
condition not met

Please find the next compound below.
Prompt: Criterion: INHIBITION strictly below 30%. Is it met by Cc1nn(C)c(Cl)c1C1CCCN1CC(=O)N1CCCCC1 (stereo unspecified) ?
Response: condition met
